Reference source for all entries: patent US20240209076A1

# target system: human IL-6 (human, UniProt P05231 30-212)
# Sequence (P05231 30-212 limits assumed): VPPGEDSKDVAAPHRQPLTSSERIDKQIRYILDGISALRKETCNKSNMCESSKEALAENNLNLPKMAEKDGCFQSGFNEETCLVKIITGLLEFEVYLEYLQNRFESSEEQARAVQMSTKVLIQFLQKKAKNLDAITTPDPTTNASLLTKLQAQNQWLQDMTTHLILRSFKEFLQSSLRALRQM
# procedure details: SPR Biacore, supernatant, Protein A capture, 37 C
Entries annotated with measured Kd
quantity measured: Kd (nM)

1. Anti-IL-6 antibody, heavy chain S35H, G66D, L100D / light chain WT (antibody, IgG1, V domains shown, IgG1; variable domains only) VH: EVQLVESGGGLVQPGGSLRLSCAASGFTFSPFAMHWVRQAPGKGLEWVAKISPGGSWTYYSDTVTDRFTFSLDTSKSTAYLQMNSLRAEDTAVYYCARQDWGYYALDIWGQGTLVTVSS VL: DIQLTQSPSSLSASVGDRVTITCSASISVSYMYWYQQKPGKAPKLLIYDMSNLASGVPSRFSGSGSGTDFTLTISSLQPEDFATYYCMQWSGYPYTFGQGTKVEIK: 0.447
2. Anti-IL-6 antibody, heavy chain S35H, G66D, Q99S / light chain WT (antibody, IgG1, V domains shown, IgG1; variable domains only) VH: EVQLVESGGGLVQPGGSLRLSCAASGFTFSPFAMHWVRQAPGKGLEWVAKISPGGSWTYYSDTVTDRFTFSLDTSKSTAYLQMNSLRAEDTAVYYCARSLWGYYALDIWGQGTLVTVSS VL: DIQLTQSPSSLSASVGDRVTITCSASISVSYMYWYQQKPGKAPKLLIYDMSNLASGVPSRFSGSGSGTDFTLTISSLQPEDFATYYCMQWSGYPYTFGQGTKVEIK: 6.48
